Target System: T1, human EGFRvIII protein on the cell surface (human, UniProt P00533 25-1210)
T1 construct: whole, on cells; the cell line is named under assay; also called hEGFRvIII; U87MG-hEGFRvIII
Protocol Details: FACS on CHOk1-EGFRvIII cells
Reported Endpoint: Maximum mean fluorescence intensity (MFI)
# value in MFI; strip the unit string

Exercise: Which Maximum mean fluorescence intensity reading was recorded for the binder c75G7C6-4 (antibody, human IgG1, V domains shown, Chimeric 75G7C6 with DG of heavy chain CDR3 mutated to SG; Human IgG1/kappa; also called mutant chimeric antibody DG/SG) VH: EVQLQQSGPELVKPGASVKIPCKASGYTFTDYNMDWVKQSHGKSLEWIGDINPNNGDTIYNQKFKGKATLTVDKSSSTAYMELRSLTSEDTAVYYCARGDYSGYYPVYYAMDYWGQGTSVTVSS VL: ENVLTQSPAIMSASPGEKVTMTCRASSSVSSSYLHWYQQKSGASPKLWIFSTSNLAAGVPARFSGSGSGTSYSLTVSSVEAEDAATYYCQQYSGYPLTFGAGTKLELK ?
Solution: 52600
